# targetUnderTest: Tyrosyl-DNA phosphodiesterase 1 (Homo sapiens)
# protocolText: qHTS Assay for Inhibitors of Tyrosyl-DNA Phosphodiesterase (TDP1); further: nearly all actives have a fitted effect of over 40% in size
# assayConditions: recombinant TDP1, AlphaScreen DNA substrate cleavage; series mostly up to 130 µM
In all, about 350,000 compounds went through this assay and about 990 (0.28%) were called active. Another 2% or so got no clear call; they are omitted. The call rests on the fitted dose curve; in most records, active means well fitted inhibition curve with a large enough effect; inconclusive means small, poorly fitted or top-dose-only effect; inactive means no such curve, though single readings can be large or run the other way. The sample as a whole holds a higher share of actives than the screen did.
// one of 1.0 = active, 0.0 = inactive, no free text

Answered examples (5):
Cc1cccc(N2CCN(S(=O)(=O)c3ccc(-c4cc(C)no4)s3)CC2C)c1 (stereo unspecified) :: 0.0
CO[C@@]12[C@@H](COC(N)=O)C3=C(C(=O)C(C)=C(N)C3=O)N1C[C@@H]1N[C@@H]12 :: 1.0
Cc1cccc(Nc2nc(-c3ccccc3)cs2)n1 :: 0.0
C=CC1=C(C(=O)O)N2C(=O)[C@@H](NC(=O)/C(=N\OCC(=O)O)c3csc(N)n3)[C@H]2SC1 :: 1.0
Cc1cccc(N2CCN(C(=O)c3cccc(S(=O)(=O)N4CCc5ccccc5C4)c3)CC2C)c1 (stereo unspecified) :: 0.0

Attention now turns to another entry.
### Prompt Entry CCc1ccc(NC(=O)CN2CCSc3ccc(S(=O)(=O)N4CCCC4)cc32)cc1 : call = ?
### Response 0.0
